Form field: IC50 (one value per entry).
- target: SPM-1 (Pseudomonas aeruginosa)
- Sequence (Q8G9Q0 entry or part of it): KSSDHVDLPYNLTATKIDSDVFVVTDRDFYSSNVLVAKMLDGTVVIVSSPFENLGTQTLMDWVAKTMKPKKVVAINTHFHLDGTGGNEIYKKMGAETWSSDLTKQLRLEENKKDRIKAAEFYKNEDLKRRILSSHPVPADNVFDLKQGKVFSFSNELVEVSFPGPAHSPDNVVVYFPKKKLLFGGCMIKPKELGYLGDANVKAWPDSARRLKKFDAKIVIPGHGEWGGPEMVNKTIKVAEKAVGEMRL
- experimental.protocol: SPM-1 inhibition (residual activity, IC50), FC4 as reporter substrate
- Source text: To achieve clinical utility, MBL inhibitors may need to act on more than one MBL subfamily. This is potentially challenging because of the generally low sequence similarity between MBLs of different subfamilies (B1, B2, B3). […] This set of compounds was selected as a result of their previously reported inhibition of metal-binding oxygenases.[51] […] absorbance from Greiner Bio-One were used. […]
Could you give me the number in µM? Just the number is fine.

- compound: "O=C(N[C@H](Cc1c[nH]c2ccccc12)C(=O)O)c1nc(Cl)c2ccccc2c1O [(R)-7d]"
  readout.unit: "µM"
  IC50: 46.6

stdin: # IC50 lookup, item O=C(N[C@@H](Cc1c[nH]c2ccccc12)C(=O)O)c1nc(Cl)c2ccccc2c1O [(S)-7d]
stdout: 23.2
